Source of measurements: ChEMBL document CHEMBL1149169

Target: UniProt:P28190
Sequence (P28190 whole entry): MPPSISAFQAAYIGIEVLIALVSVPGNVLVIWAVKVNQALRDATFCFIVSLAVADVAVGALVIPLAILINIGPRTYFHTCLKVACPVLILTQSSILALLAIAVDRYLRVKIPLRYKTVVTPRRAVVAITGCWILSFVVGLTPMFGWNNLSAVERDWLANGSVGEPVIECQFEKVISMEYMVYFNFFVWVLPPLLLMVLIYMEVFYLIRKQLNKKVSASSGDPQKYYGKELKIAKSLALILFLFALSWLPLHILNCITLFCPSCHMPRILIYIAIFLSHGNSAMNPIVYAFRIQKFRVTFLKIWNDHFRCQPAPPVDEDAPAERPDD
Test: Binding affinity against adenosine A1 receptor in bovine cortical membranes using [3H]CHA as radioligand
Format: cell membranes
pKi: −log10 of the molar value.
This section presents molecules with their documented pKi values.

>  <sample.smiles>
Oc1cc(-c2ccccc2)nc2nc(N3CCNCC3)ccc12

>  <system.name>
UniProt:P28190

>  <pKi>
< 5.00

$$$$
>  <sample.smiles>
CCOC(=O)CCN1CCN(c2ccc3c(O)cc(-c4ccccc4)nc3n2)CC1

>  <system.name>
UniProt:P28190

>  <pKi>
< 5.00

$$$$
>  <sample.smiles>
Cc1ccc2c(N)ccnc2n1

>  <system.name>
UniProt:P28190

>  <pKi>
< 5.00

$$$$

###

target: Adenosine receptor A1 (Homo sapiens, UniProt P30542); test: Binding affinity against adenosine A1 receptor in human cortical membranes using [3H]CHA as radioligand; assay type: cell membranes
Sequence (P30542 whole entry): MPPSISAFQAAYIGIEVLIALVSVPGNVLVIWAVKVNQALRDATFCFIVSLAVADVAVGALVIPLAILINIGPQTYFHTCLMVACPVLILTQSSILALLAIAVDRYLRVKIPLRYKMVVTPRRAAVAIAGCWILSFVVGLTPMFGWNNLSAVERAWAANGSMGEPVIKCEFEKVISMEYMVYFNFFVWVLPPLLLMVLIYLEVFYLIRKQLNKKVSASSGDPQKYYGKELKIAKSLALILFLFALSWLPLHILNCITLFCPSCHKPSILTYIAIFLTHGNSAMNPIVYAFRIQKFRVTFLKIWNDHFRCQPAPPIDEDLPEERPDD
quantity.measured: Ki

>  <sample.smiles>
Cc1ccc2c(N(C)C)cc(-c3ccccc3)nc2n1

>  <value.observed>
> 10 µM

$$$$
>  <sample.smiles>
CC(=O)Nc1ccc(-c2cc(O)c3ccc(C)nc3n2)cc1

>  <value.observed>
2 µM

$$$$
>  <sample.smiles>
Cc1cc(O)c2ccc(=O)[nH]c2n1

>  <value.observed>
> 10 µM

$$$$
>  <sample.smiles>
Cc1ccc2c(O)cc(-c3ccc([N+](=O)[O-])cc3)nc2n1

>  <value.observed>
3.1 µM

$$$$
>  <sample.smiles>
CCn1c(-c2ccccc2)cc(=O)c2ccc(C)nc21

>  <value.observed>
> 10 µM

$$$$
>  <sample.smiles>
COc1ccc2c(O)cc(-c3ccccc3)nc2n1

>  <value.observed>
2 µM

$$$$
>  <sample.smiles>
Cc1ccc2c(N)ccnc2n1

>  <value.observed>
> 10 µM

$$$$
>  <sample.smiles>
CCOc1ccc2c(OCC)cc(-c3ccccc3)nc2n1

>  <value.observed>
> 10 µM

$$$$
>  <sample.smiles>
CCOC(=O)CCN1CCN(c2ccc3c(O)cc(-c4ccccc4)nc3n2)CC1

>  <value.observed>
> 10 µM

$$$$
>  <sample.smiles>
O=c1ccc2c(O)cc(-c3ccccc3)nc2[nH]1

>  <value.observed>
> 10 µM

$$$$
